Provide the recorded Kd for the entries that follow.
Molecular target: T1, human Claudin 18.2 (CLDN 18.2) expressed on HEK293 / HEK293T cells (human)
T1 construct: Full-length CLDN18.2 on transiently or stably transfected HEK293/HEK293T cells; also called CLD18.2
T1 sequence (chain, as listed by the source limits assumed): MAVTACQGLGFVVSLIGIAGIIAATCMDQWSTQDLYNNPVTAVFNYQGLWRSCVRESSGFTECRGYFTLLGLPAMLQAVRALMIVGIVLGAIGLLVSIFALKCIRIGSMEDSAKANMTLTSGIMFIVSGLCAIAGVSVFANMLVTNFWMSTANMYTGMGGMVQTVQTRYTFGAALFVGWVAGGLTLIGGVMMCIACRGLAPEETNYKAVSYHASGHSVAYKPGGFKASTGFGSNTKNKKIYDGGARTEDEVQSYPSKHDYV
Test: cell-based ELISA (InCell Elisa) on fixed HEK293_CLDN18.2 cells, OD450; Kd table under the graph, no unit in the table, unit from the x axis log[antibody] ug/ml
Write down the numeric answer in µg/mL and omit the unit.

Data request: Specify measured Kd for Anti-CLDN 18.2-5C9ob (humanized antibody h5C9ob) (antibody, human IgG1, V domains shown, the general method uses human IgG1 constant domains; also called CLDN18.2-h5C9ob) VH: EVQLVESGGGLVQPGGSLRLSCAVSGYTFSMNWVRQAPGKGLEWVAWINMYTGEPTYADDFKGRFTISRDDSKNTLYLQMNSLRAEDTAVYYCARLYNGNSLDYWGQGTLVTVSS VL: DIQMTQSPSSLSASVGDRVTITCKSSQSLLNSGNQKSYLTWYQQKPGKAPKLLIYWASTLESGVPSRFSGSGSGTDYTLTISSLQPEDFATYYCQNAYFFPFTFGQGTKVEIK .
Data returned: 0.153

Data request: Specify measured Kd for Anti-CLDN 18.2-5C9o (humanized antibody h5C9o) (antibody, V domains shown, Humanized IgG; The general method joins the variable domains to human IgG1 constant domains; Full chains are not mapped to the name; also called CLDN18.2-h5C9o) VH: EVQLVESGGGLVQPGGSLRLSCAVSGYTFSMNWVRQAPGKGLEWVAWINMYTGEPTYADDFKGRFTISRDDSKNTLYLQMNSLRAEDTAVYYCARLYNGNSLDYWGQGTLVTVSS VL: DIQMTQSPSSLSASVGDRVTITCKSSQSLLNSGNQKSYLTWYQQKPGKAPKLLIYWASTLESGVPSRFSGSGSGTDYTLTISSLQPEDFATYYCQNAYSFPFTFGQGTKVEIK .
Data returned: 0.126
